Data origin: PubChem BioAssay AID1159580

Assay: chemical genetic growth profiling, strain panel (AID 1159580);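 note: tested at 20 µM; growth read once vehicle control cultures reached saturation at 30 °C; 1 = growth at the plate median or of vehicle wells; lower values mean less growth of the strain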
Conditions: S. cerevisiae deletion strains, growth OD, locus YMR277W, strain FCP1
Out of some 5,500 compounds screened, about 2,000 (36%) were called active. About 18% were inconclusive and are not listed. Cut-off read from the data, not from the text of the source: active = normalized growth mostly below about 0.91 (no sharp cut-off); inconclusive = no clear call, values can overlap the other calls; inactive = mostly above about 0.92. The list shows a part of the results.
Labels: active, inactive

> print(dat)
                                   compound     group
1  Cc1c(C)c(C)c(C(=O)c2ccc(N=Cc3cc(Cl)cc(Cl)c3O)cc2)c(C)c1C  inactive
2  O=[N+]([O-])c1cccc(C2CC(c3ccccc3)=Nc3ccccc3S2)c1 (stereo not drawn)  inactive
3  CC(C)(C)c1cc(C(=O)Nc2ccc3c(c2)OCO3)n(Cc2ccc(F)cc2)n1  inactive
4  Cc1onc(-c2c(Cl)cccc2Cl)c1C(=O)O/N=C(/N)Cc1ccc(C(C)(C)C)cc1  inactive
5                        N#CSCC(=O)c1ccccc1    active
6  O=C1c2cccc3c(Sc4ccccc4)ccc(c23)C(=O)N1NCCO  inactive
7  Cc1onc(-c2c(F)cccc2Cl)c1/C(N)=N\OC(=O)c1ccc(C(C)(C)C)cc1  inactive
8  CC(C)(C)c1cc(C(=O)NNc2cccc(Cl)c2)n(Cc2ccccc2)n1  inactive

###

normalized growth reference
Assay: chemical genetic growth profiling, strain panel (AID 1159580)
Conditions: S. cerevisiae deletion strains, growth OD, locus YDL101C, strain DUN1, stronger effect = lower value
Among all 5,500 compounds or so, about 2,000 (36%) were called active. Not shown: some 18% with an inconclusive outcome. The list shows a part of the results.
measured_metric: normalized growth

> print(dat)
                                   compound    measured.metric  result.number
1                   O=C(OCc1ccccc1)c1ccccc1  normalized growth          0.939
2  CC(=O)Oc1ccc(/C=C/c2cc(OC(C)=O)cc(OC(C)=O)c2)cc1  normalized growth          0.993
3                           Nc1ccc2nonc2c1N  normalized growth          0.906
4           O=C1NC(O)=NC1(c1ccccc1)c1ccccc1  normalized growth           1.01
5  CC(=O)Oc1ccc(C(c2ccc(OC(C)=O)cc2)c2ccccn2)cc1  normalized growth          0.974
6  O=C1NC2CC2N1C(=O)OCc1ccccc1 (configuration not stated)  normalized growth           1.01
7                        CC(=O)Oc1cccc(O)c1  normalized growth           1.01

###

Experiment: chemical genetic growth profiling, strain panel (AID 1159580);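 note: tested at 20 µM; growth read once vehicle control cultures reached saturation at 30 °C; 1 = growth at the plate median or of vehicle wells; lower values mean less growth of the strain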
Conditions: S. cerevisiae deletion strains, growth OD, locus YPR135W, strain CTF4, stronger effect = lower value
Out of some 5,500 compounds screened, about 2,000 (36%) were called active. About 18% were inconclusive and are not listed. The list shows a part of the results.
measured_metric: normalized growth

> print(dat)
                                    compound  result.number
 1  O=C1c2ccccc2C(=O)N1CN(CCSc1ccccc1)CN1C(=O)c2ccccc2C1=O           1.05
 2  O=S(=O)(Oc1ccc(OCc2ccccc2)cc1)c1cc(Cl)cc(Cl)c1          0.988
 3          Fc1cc(F)cc(COc2cc(Cl)cc(Cl)c2)c1          0.886
 4          N#CCCC1(CCC#N)c2ccccc2-c2ccccc21           1.11
 5  Clc1cncc(Cl)c1N/N=C\C1CC2C=CC1C2 (configuration not stated)          0.622
 6          CCCc1cc(=O)oc2c1c(C)nn2-c1ccccc1          0.552
 7             COC(OC)c1cc(=O)[nH]c(=S)[nH]1           1.03
 8        CCOC(=O)CSc1nc2cc(C(F)(F)F)cnc2n1C          0.912
 9  CSc1sc(C#N)c2c1C(O)CCC2 (configuration not stated)           0.94
10  COc1c(Br)cc(/C(N)=N\OC(=O)c2c(-c3c(Cl)cccc3Cl)noc2C)cc1Br           1.17
11  COC(=O)c1ccc(S(=O)(=O)N2CCC(C(N)=O)CC2)n1C              1
12         CCCc1cc(=O)oc2cc(OCC(=O)OCC)ccc12           0.82

###

Assay: chemical genetic growth profiling, strain panel (AID 1159580);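 note: tested at 20 µM; growth read once vehicle control cultures reached saturation at 30 °C; 1 = growth at the plate median or of vehicle wells; lower values mean less growth of the strain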
Conditions: S. cerevisiae deletion strains, growth OD, locus YPL031C, strain PHO85
Among all 5,500 compounds or so, about 2,000 (36%) were called active. Another 18% or so got no clear call; they are omitted. Cut-off read from the data, not from the text of the source: active = normalized growth mostly below about 0.91 (no sharp cut-off); inconclusive = no clear call, values can overlap the other calls; inactive = mostly above about 0.92. This is one part of the list.
Labels: active, inactive

> print(dat)
                                    compound     group
 1    O=S(=O)(Oc1ccc(-c2csnn2)cc1)c1ccccc1Cl  inactive
 2                        N#CSCC(=O)c1ccccc1    active
 3           Brc1ccc(-c2csc(-c3ccncc3)n2)cc1  inactive
 4  Cc1nn(-c2cccc(Cl)c2)c2oc(=O)cc(C(F)(F)F)c12    active
 5  Cc1cc(/C(N)=N\OC(=O)C(C)(C)C)cc(/C(N)=N\OC(=O)C(C)(C)C)c1  inactive
 6  O=[N+]([O-])c1cccc(C2CC(c3ccccc3)=Nc3ccccc3S2)c1 (centres undefined)  inactive
 7  CC(C)(C)c1cc(C(=O)NNc2cccc(Cl)c2)n(Cc2ccccc2)n1  inactive
 8  COc1c(Br)csc1C(=O)O/N=C(/N)c1cc(C(F)(F)F)cc(C(F)(F)F)c1  inactive
 9  COC(=O)C1=C(Nc2ccccc2NS(=O)(=O)c2ccc(C(F)(F)F)cc2Cl)CSC1  inactive
10  O=S(=O)(Nc1ccccc1Oc1ccccc1)c1ccc(-c2ccno2)s1  inactive
11  COC(=O)c1sccc1NS(=O)(=O)c1cc(Cl)cc(Cl)c1  inactive
12  Clc1ccc(CN2CCN(c3cccc4[nH]ccc34)CC2)cc1Cl  inactive
13      CSc1n[nH]c(-c2cc(C(C)(C)C)oc2C)c1C#N  inactive
14   CSc1sc(C(=O)Sc2ccccc2)cc1S(=O)(=O)C(C)C  inactive

###

Assay: chemical genetic growth profiling, strain panel (AID 1159580);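 note: tested at 20 µM; growth read once vehicle control cultures reached saturation at 30 °C; 1 = growth at the plate median or of vehicle wells; lower values mean less growth of the strain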
Settings: S. cerevisiae deletion strains, growth OD, locus YJR066W, strain TOR1, stronger effect = lower value
The whole screen tested about 5,500 compounds, of which about 2,000 (36%) were called active. Not shown: some 18% with an inconclusive outcome. The list shows a part of the results.
measured_metric: normalized growth

> print(dat)
                                    compound  result.number
 1                            O=C(O)c1ccccc1          0.863
 2           COc1cc(C/C=C/c2ccccc2)c(OC)cc1O          0.989
 3                 CCCc1cc(=O)[nH]c(=S)[nH]1          0.971
 4  CC(C)CCCC(C)[C@H]1CCC2C3C(=O)C=C4C[C@@H](O)CC[C@]4(C)C3CC[C@@]21C (stereo partly drawn)          0.948
 5  Cc1scc2c1N(C(=O)CN1CCN(C)CC1)c1ccccc1NC2=O          0.962
 6                 CC1=CC(=O)c2c(O)cccc2C1=O        0.00113
 7  CC(C)=CCCC(C)[C@@H]1CC[C@]2(C)C3=C(CC[C@@]12C)C1(C)CC[C@H](O)C(C)(C)C1CC3 (stereo partly drawn)          0.866
 8            Cc1ccc(-c2csc(-c3ccncc3)n2)cc1           0.53
 9                           O=C(O)C1=CCCNC1          0.997
10          O=C(O)c1ccc(S(=O)(=O)N(Cl)Cl)cc1          0.916
11        Nc1ccc(S(=O)(=O)NC(=O)c2ccccc2)cc1          0.932
12  COC(=O)/C(=C1\OC(=O)C(c2ccccc2)=C1O)c1ccccc1          0.902
13  CS(=O)(=O)c1ccc([C@@H](O)[C@@H](CO)NC(=O)C(Cl)Cl)cc1          0.962
14  CC(C)(C)c1cc(C(=O)Nc2ccc3c(c2)OCO3)n(Cc2ccc(F)cc2)n1          0.999
15      O=C(Nc1cccc(Cl)c1)O/N=C1\CCCc2occc21          0.742
16         CC(C)(C)NC[C@H](O)c1ccc(O)c(CO)c1          0.955
17        CCCN(CCC)S(=O)(=O)c1ccc(C(=O)O)cc1          0.965
18  CC(C)(C)c1cc(C(=O)NNc2cccc(Cl)c2)n(Cc2ccccc2)n1          0.935
